Origin of the recorded values: patent US11420998B2

# method: in vivo
# measurement-setup: pig, plasma, iv, 0.05 mg/kg/h, Mean peptide Concentration, 30 min from peptide infusion (time of PTRA); IV infusion 0.05 mg/kg/h
Square brackets hold non-standard residues; d marks the D form. Peptide text beside a SMILES is read from it. Dmt = Cc1cc(O)cc(C)c1C[C@H](N)C(=O)O
measurement-name: level at 0.5 h

Input line: Given the entry Cc1cc(O)cc(C)c1C[C@H](NC(=O)[C@H](N)CCCNC(=N)N)C(=O)N[C@@H](CCCCN)C(=O)N[C@@H](Cc1ccccc1)C(N)=O [D-Arg-2′,6′-Dmt-Lys-Phe-NH2] (H-[dR][Dmt]KF-NH2) , report its measured level at 0.5 h.
Output line: ~100 ng/mL

###

# method: in vivo
# measurement-setup: pig, plasma, iv, 0.05 mg/kg/h, Mean peptide Concentration, 210 min from peptide infusion (180 min from PTRA); IV infusion 0.05 mg/kg/h
Square brackets hold non-standard residues; d marks the D form. Peptide text beside a SMILES is read from it. Dmt = Cc1cc(O)cc(C)c1C[C@H](N)C(=O)O
measurement-name: level at 3.5 h (ng/mL)
The answer is to be given in ng/mL; state only the numeric part.

Input line: Can you share its level at 3.5 h? I mean this compound: Cc1cc(O)cc(C)c1C[C@H](NC(=O)[C@H](N)CCCNC(=N)N)C(=O)N[C@@H](CCCCN)C(=O)N[C@@H](Cc1ccccc1)C(N)=O [D-Arg-2′,6′-Dmt-Lys-Phe-NH2] (H-[dR][Dmt]KF-NH2)
Output line: 111

###

# method: in vivo
# measurement-setup: pig, plasma, iv, 0.05 mg/kg/h, Mean peptide Concentration, 90 min from peptide infusion (60 min from PTRA); IV infusion 0.05 mg/kg/h
# Description: Six weeks after induction of RAS, animals were similarly anesthetized, the degree of stenosis determined by angiography, and subjects were treated with PTRA or sham. […] The plasma concentration of D-Arg-2′,6′-Dmt-Lys-Phe-NH2 was determined using a qualified LC/MS/MS assay in K2-EDTA pig plasma. […] Positive (M+2H)^2+ ions for D-Arg-2′,6′-Dmt-Lys-Phe-NH2 and the IS (d5-D-Arg-2′,6′-Dmt-Lys-Phe-NH2) were monitored in MRM mode. […]
Square brackets hold non-standard residues; d marks the D form. Peptide text beside a SMILES is read from it. Dmt = Cc1cc(O)cc(C)c1C[C@H](N)C(=O)O
measurement-name: level at 1.5 h (ng/mL)
Provide the reading as a plain figure in ng/mL.

Input line: Using the record for Cc1cc(O)cc(C)c1C[C@H](NC(=O)[C@H](N)CCCNC(=N)N)C(=O)N[C@@H](CCCCN)C(=O)N[C@@H](Cc1ccccc1)C(N)=O [D-Arg-2′,6′-Dmt-Lys-Phe-NH2] (H-[dR][Dmt]KF-NH2) , report its level at 1.5 h.
Output line: 125
